Recorded protein stability index by entry
B1: FAM189A2 (parent)
chain: PRCDLVDLGEGKICFCCEEFQPAK

- Variants of: B1
- assayExplanation: protein stability index of a GFP-peptide fusion (GPS, HEK-293T) (PSI 1-6); higher = more stable;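 also: lentivirally expressed fusions sorted by FACS into six bins by GFP to DsRed ratio, PSI derived from sequencing read proportions per bin multiplied by bin number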
- conditionNotes: c terminus: a fixed tail appended
# answer = number (no unit)

> print(dat)
   variantdescription  measurement
1                 R2C         3.55
2                 V6S         3.21
3                 D4G         2.26
4                K24S         2.72

-- ask Field request: protein stability index | item: P1E
-- reply 3.16

-- ask Moving on to the next variant: L8W
-- reply 3.23

-- ask Moving on to the next variant: F15G
-- reply 3.79

-- ask Moving on to the next variant: I13S
-- reply 3.57

-- ask Moving on to the next variant: G11E
-- reply 3.44

-- ask Moving on to the next variant: L8C
-- reply 3.87

Reference for the values: the supplement of paper PMC10567573
